# reported furin cleavage Z-score; entries follow
Biological target: furin, P09958;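 also: purified furin at 1:10 enzyme:substrate in 50 mM HEPES pH 7.5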
Sequence (P09958 whole entry): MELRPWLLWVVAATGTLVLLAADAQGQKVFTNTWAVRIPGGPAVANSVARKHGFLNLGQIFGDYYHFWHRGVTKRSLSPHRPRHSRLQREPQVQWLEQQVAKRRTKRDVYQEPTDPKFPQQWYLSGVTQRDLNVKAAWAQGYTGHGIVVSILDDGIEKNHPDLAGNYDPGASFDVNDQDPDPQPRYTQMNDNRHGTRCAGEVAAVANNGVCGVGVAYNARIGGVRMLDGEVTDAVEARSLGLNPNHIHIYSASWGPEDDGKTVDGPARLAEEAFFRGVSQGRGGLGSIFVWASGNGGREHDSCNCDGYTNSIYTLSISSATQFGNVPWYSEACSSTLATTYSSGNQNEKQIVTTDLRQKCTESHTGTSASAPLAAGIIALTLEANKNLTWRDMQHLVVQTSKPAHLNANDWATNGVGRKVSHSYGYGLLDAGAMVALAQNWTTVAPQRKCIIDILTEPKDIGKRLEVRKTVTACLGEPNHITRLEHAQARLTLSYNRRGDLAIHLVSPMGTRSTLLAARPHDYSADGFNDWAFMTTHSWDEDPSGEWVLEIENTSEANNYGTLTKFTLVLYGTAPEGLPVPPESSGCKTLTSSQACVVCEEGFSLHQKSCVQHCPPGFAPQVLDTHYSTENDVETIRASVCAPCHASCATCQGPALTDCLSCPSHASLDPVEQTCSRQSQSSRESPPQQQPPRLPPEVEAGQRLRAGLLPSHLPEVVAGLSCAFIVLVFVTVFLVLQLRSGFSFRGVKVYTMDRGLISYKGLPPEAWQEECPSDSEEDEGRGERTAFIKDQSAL
Test: furin cleavage Z-score vs untreated control; higher = more cleavage, active = 3.5 or more, inactive = 1 or less, 8 variable residues between constant flanks
Conditions: 7.5 min
Some of the results follow. How many sequences the whole screen found active is unknown.

SEQUENCE STRING	furin cleavage Z-score
CAGQPGLKRSAGNASASA [FS-1203]	-1.59
CARARRAIAAAGNASASA [FS-3148]	5.95
CAHAYRPGRRAGNASASA [FS-247]	-0.291
CAVCAAILRRAGNASASA [HC1109]	-1.76
CANKVRAKRSAGNASASA [FS-618]	10.6
CAHAYRHRRLAGNASASA [FS-1531]	0.687
CARARRVTDAAGNASASA [FS-2890]	-1.51
CARRRRDSRSAGNASASA [FS-1267]	9.84
CACTCGSSDLAGNASASA [HC722]	-1.16
CAALCRHRRLAGNASASA [FS-154]	4.73
CARARRALRRAGNASASA [FS-2130]	3.99
CARRRRRKESAGNASASA [FS-2298]	2.91
CARCRRALRRAGNASASA [FS-1687]	3.87
CAVFSRDSRSAGNASASA [FS-103]	2.25
CATTPCKGSWAGNASASA [HC71]	1.27
